Target: Human immunodeficiency virus type 1 protease (Human immunodeficiency virus 1, UniProt Q72874)
pKi: −log10 of the molar value.
Classify as follows. Reported pKi greater than or equal to 7: class 1. Reported pKi below: class 0.

>>> df
                            chemical_smiles    group
0  CC(C)CN([C@@H](CCCCNC(=O)OCC1c2ccccc2-c2ccccc21)C(=O)O)S(=O)(=O)c1ccc([N+](=O)[O-])cc1  class 1
1  CC(C)CN([C@@H](CCCCNC(=O)OCC1c2ccccc2-c2ccccc21)C(=O)O)S(=O)(=O)c1cccs1  class 1
2  Cc1ccc(S(=O)(=O)N(CC(C)C)[C@@H](CCCCNC(=O)OC2c3ccccc3-c3ccccc32)C(=O)NO)cc1  class 0
3  Cc1ccc(S(=O)(=O)N(CC(C)C)[C@@H](CCCCNC(=O)OC(C)(C)C)C(=O)O)cc1  class 0
4  Cc1ccc(S(=O)(=O)N(CC(C)C)[C@@H](CCCCCNC(=O)OCC2c3ccccc3-c3ccccc32)C(=O)O)cc1  class 0
5  Cc1ccc(S(=O)(=O)N(CC(C)C)[C@@H](CCCCNC(=O)OCc2ccccc2)C(=O)O)cc1  class 0

====

Reported pIC50 by item:
Test: Inhibitory concentration against cathepsin
pIC50: −log10 of the molar value.
Reported Property: pIC50

                            chemical_smiles  reported_property  measured_result
0  Cc1ccc(S(=O)(=O)N(CC(C)C)[C@@H](CCCCNC(=O)OCC2c3ccccc3-c3ccccc32)C(=O)O)cc1              pIC50             4.81
1  CC(C)CN([C@@H](CCCCNC(=O)OCC1c2ccccc2-c2ccccc21)C(=O)O)S(=O)(=O)c1ccc(N)cc1              pIC50             4.99

====

pIC50: −log10 of the molar value.
pIC50 data for Pepsin A (Homo sapiens) follow.
Reported Property: pIC50

                            chemical_smiles  measured_result
0  Cc1ccc(S(=O)(=O)N(CC(C)C)[C@@H](CCCCNC(=O)OCC2c3ccccc3-c3ccccc32)C(=O)O)cc1             5.27
1  CC(C)CN([C@@H](CCCCNC(=O)OCC1c2ccccc2-c2ccccc21)C(=O)O)S(=O)(=O)c1ccc(N)cc1             5.39

====

List of pKi values.
Target: Human immunodeficiency virus type 1 protease (Human immunodeficiency virus 1, UniProt Q72874)
pKi: −log10 of the molar value.
Reported Property: pKi

>>> df
                            chemical_smiles  value_relation_sign  measured_result
0  CC(C)CN([C@@H](CCCCNC(=O)OCC1c2ccccc2-c2ccccc21)C(=O)O)S(=O)(=O)c1ccc(C(C)(C)C)cc1                    =             6.59
1  Cc1ccc(S(=O)(=O)N(CC(C)C)[C@@H](CCCCNC(=O)OCC2c3ccccc3-c3ccccc32)C(=O)O)cc1                    =             8.30
2  Cc1ccc(S(=O)(=O)N(CC(C)C)[C@@H](CNC(=O)OCC2c3ccccc3-c3ccccc32)C(=O)O)cc1                    <             6.60

====

Target: Human immunodeficiency virus type 1 protease (Human immunodeficiency virus 1, UniProt Q72874)
Reported Property: Ki (nM)

>>> df
                                    compound  reported_property  value_relation_sign  measured_result
 0  CC(C)CN([C@@H](CCCCNC(=O)OCC1c2ccccc2-c2ccccc21)C(=O)O)S(=O)(=O)c1ccc(N)cc1                 Ki                    =              2.1
 1  CC(C)CN([C@@H](CCCCNC(=O)OCC1c2ccccc2-c2ccccc21)C(=O)O)S(=O)(=O)c1ccc(F)cc1                 Ki                    =             17.4
 2  Cc1ccc(S(=O)(=O)N(CC(C)C)[C@H](CN)CCCCNC(=O)OC2c3ccccc3-c3ccccc32)cc1                 Ki                    >              300
 3  Cc1ccc(S(=O)(=O)N(CC(C)C)[C@@H](CCCCNC(=O)OC2c3ccccc3-c3ccccc32)C(N)=O)cc1                 Ki                    =              107
 4  Cc1ccc(S(=O)(=O)N(CC(C)C)[C@@H](CCCNC(=O)OCC2c3ccccc3-c3ccccc32)C(=O)O)cc1                 Ki                    =              180
 5  Cc1ccc(S(=O)(=O)N(CC(C)C)[C@H](C=O)CCCCNC(=O)OC2c3ccccc3-c3ccccc32)cc1                 Ki                    >              300
 6  Cc1ccc(S(=O)(=O)NCCC[C@H](NC(=O)OCC2c3ccccc3-c3ccccc32)C(=O)O)cc1                 Ki                    =            26200
 7  Cc1ccc(S(=O)(=O)N(CC(C)C)[C@@H](CCCCNC(=O)OC2c3ccccc3-c3ccccc32)C(=N)N)cc1                 Ki                    =              280
 8  Cc1ccc(S(=O)(=O)N(CC(C)C)[C@@H](CCCCNC(=O)OC2c3ccccc3-c3ccccc32)C(=N)S)cc1                 Ki                    =              127
 9  Cc1ccc(S(=O)(=O)N[C@@H](CCCCNC(=O)OC(C)(C)C)C(=O)O)cc1                 Ki                    >           100000
10  Cc1ccc(S(=O)(=O)N(CC(C)C)[C@@H](CCCCNC(=O)OC2c3ccccc3-c3ccccc32)c2nnn[nH]2)cc1                 Ki                    >              300
11  CCC(C)CN([C@@H](CCCCNC(=O)OCC1c2ccccc2-c2ccccc21)C(=O)O)S(=O)(=O)c1ccc(C)cc1 (stereo partly specified)                 Ki                    =             13.5
12  CC(C)CN(C(=O)c1ccccc1)[C@@H](CCCCNC(=O)OCC1c2ccccc2-c2ccccc21)C(=O)O                 Ki                    >              300
13  Cc1ccc(S(=O)(=O)N(CC(C)C)[C@@H](CCCCNC(=O)CC2c3ccccc3-c3ccccc32)C(=O)O)cc1                 Ki                    =             89.7
14  Cc1ccc(S(=O)(=O)N(CC2CCCC2)[C@@H](CCCCNC(=O)OCC2c3ccccc3-c3ccccc32)C(=O)O)cc1                 Ki                    =              5.2
15  COC(=O)[C@H](CCCCNC(=O)OC1c2ccccc2-c2ccccc21)N(CC(C)C)S(=O)(=O)c1ccc(C)cc1                 Ki                    >              300

====

Target: Renin (Homo sapiens)
Sequence (P00797 whole entry): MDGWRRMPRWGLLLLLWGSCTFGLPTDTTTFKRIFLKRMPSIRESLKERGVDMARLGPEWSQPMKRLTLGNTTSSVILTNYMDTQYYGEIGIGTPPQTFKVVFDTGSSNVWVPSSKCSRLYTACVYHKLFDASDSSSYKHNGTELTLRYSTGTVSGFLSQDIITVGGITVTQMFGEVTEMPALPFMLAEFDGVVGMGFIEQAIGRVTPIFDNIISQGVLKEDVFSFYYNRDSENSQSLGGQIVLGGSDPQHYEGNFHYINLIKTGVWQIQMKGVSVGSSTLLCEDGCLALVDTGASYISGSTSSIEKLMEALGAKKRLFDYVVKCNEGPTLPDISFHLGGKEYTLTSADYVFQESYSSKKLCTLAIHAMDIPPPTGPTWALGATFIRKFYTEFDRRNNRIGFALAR
Reported Property: IC50 (µM)

>>> print(df.to_string())
                            chemical_smiles  units_symbol  measured_result
0  CC(C)CN([C@@H](CCCCNC(=O)OCC1c2ccccc2-c2ccccc21)C(=O)O)S(=O)(=O)c1ccc(N)cc1            µM              5.2
